System: SF-295 CNS
Assay: NCI tumour cell line growth inhibition, 48 h
measurement label: TGI

Illustrative cases are given below, each with its answer.
> print(dat)
                                   compound  measured
1  C=C(C[N+](C)(C)C)N/N=C/c1oc(-c2ccc(OC)c(OC)c2)c(-c2ccc(OC)c(OC)c2)c1[N+](=O)[O-]   39.6 µM
2  CCn1c(-c2nonc2N)nc2c(C#CC(C)(C)O)ncc(OC[C@@H]3CCCN3)c21   > 25 µM
3  Cc1cc([C@H](C)Nc2nccc(N3C(=O)OC[C@@H]3[C@H](C)F)n2)ncc1-c1ccnc(C(F)(F)F)c1  > 100 µM
4  CN1C=C(C(N)=O)C2CC(O)[C@@](NC(=O)CS(N)(=O)=O)(C(=O)O)C2C1 (some centres undefined)   6.97 µM
5  NC(=O)c1c(NC(=O)c2cccc(C(F)(F)F)c2)sc2c1CCC(=O)C2   9.07 µM

Query :: Quick check: TGI of C/C(N=NC(=S)N1CCCCCC1)=C1\C=CC=CN1O ?
Result :: > 100 µM

Query :: Quick check: TGI of Cc1ccc(N2C(=O)/C(=C3\Sc4c(nc(C)n(C)c4=O)N3c3ccccc3)SC2=S)cc1 ?
Result :: > 100 µM

Query :: Quick check: TGI of CC(=O)c1c(Nc2ccc(F)c(F)c2F)[nH]c2c(F)cc(F)cc2c1=O ?
Result :: 1.5 µM

Query :: Quick check: TGI of CC12O[Te]34OC1(C)C(C)(O3)C2(C)O4 ?
Result :: 18.3 µM
